# System: JJN-3 (Plasma Cell Myeloma)
# test.summary: combination Emax (second highest fraction inhibited in the dose matrix, 72 h); higher = more inhibition; extreme values may be limits of the assay
Class key for combination Emax values: bucket 1: < 0.6; bucket 2: ≥ 0.6 and < 0.9; bucket 3: ≥ 0.9

COc1nnc2ccc(N3CCC(c4ccc(OCCN5CCN(C)C(=O)[C@H]5C)cc4)CC3)nn12 [AZD5153] + CN(CC[C@H](CSC1=CC=CC=C1)NC2=C(C=C(C=C2)S(=O)(=O)NC(=O)C3=CC=C(C=C3)N4CCC(CC4)[C@H](C5=CC=CC=C5C6=CC=C(C=C6)Cl)O)S(=O)(=O)C(F)(F)F)CCO [AZD4320] (first compound max 1 µM, 7x7, partner max 1 µM): bucket 3
CC1(C)CCC(CN2CCN(c3ccc(C(=O)NS(=O)(=O)c4ccc(NCC5CCOCC5)c([N+](=O)[O-])c4)c(Oc4cnc5[nH]ccc5c4)c3)CC2)=C(c2ccc(Cl)cc2)C1 [Venetoclax] + C[C@@H](Nc1cc(F)cc(F)c1)c1cc(C(=O)N(C)C)cc2c(=O)cc(N3CCOCC3)oc12 [AZD8186] (first compound max 1 µM, 7x7, partner max 3 µM): bucket 1
C[C@@H](c1ccc2nccn2c1)n1nnc2ncc(-c3cnn(C)c3)nc21 [Savolitinib] + CN(CC[C@H](CSC1=CC=CC=C1)NC2=C(C=C(C=C2)S(=O)(=O)NC(=O)C3=CC=C(C=C3)N4CCC(CC4)[C@H](C5=CC=CC=C5C6=CC=C(C=C6)Cl)O)S(=O)(=O)C(F)(F)F)CCO [AZD4320] (first compound max 1 µM, 7x7, partner max 1 µM): bucket 1
Cc1c2c(nn1C)CSCc1cc(n(C)n1)CSc1cc(c3ccccc3c1)OCCCc1c(C(=O)O)n(C)c3c-2c(Cl)ccc13 [AZD5991] + CC1(C)CCC(CN2CCN(c3ccc(C(=O)NS(=O)(=O)c4ccc(NCC5CCOCC5)c([N+](=O)[O-])c4)c(Oc4cnc5[nH]ccc5c4)c3)CC2)=C(c2ccc(Cl)cc2)C1 [Venetoclax] (first compound max 1 µM, 7x7, partner max 1 µM): bucket 3
CC1(C)CCC(CN2CCN(c3ccc(C(=O)NS(=O)(=O)c4ccc(NCC5CCOCC5)c([N+](=O)[O-])c4)c(Oc4cnc5[nH]ccc5c4)c3)CC2)=C(c2ccc(Cl)cc2)C1 [Venetoclax] + Cc1cc2ncnn2cc1Nc1ncc2c(n1)n(C1CCOCC1)c(=O)n2C [AZD7648] (first compound max 1 µM, 7x7, partner max 10 µM): bucket 1
COc1cccc(OCCCN)c1-c1cc(Nc2cnc(C#N)cn2)n[nH]1 [Prexasertib] + O=C(c1cc(Cc2n[nH]c(=O)c3ccccc23)ccc1F)N1CCN(C(=O)C2CC2)CC1 [Olaparib] (first compound max 1 µM, 7x7, partner max 10 µM): bucket 3
CN(CCO)CC[C@H](CSc1ccccc1)Nc1ccc(S(=O)(=O)NC(=O)c2ccc(N3CCC([C@@H](O)c4ccccc4-c4ccc(Cl)cc4)CC3)cc2)cc1S(=O)(=O)C(F)(F)F [AZD4320] + C=CCn1c(=O)c2cnc(Nc3ccc(N4CCN(C)CC4)cc3)nc2n1-c1cccc(C(C)(C)O)n1 [AZD1775] (first compound max 1 µM, partner max 1 µM): bucket 2
CC1(C)CCC(CN2CCN(c3ccc(C(=O)NS(=O)(=O)c4ccc(NCC5CCOCC5)c([N+](=O)[O-])c4)c(Oc4cnc5[nH]ccc5c4)c3)CC2)=C(c2ccc(Cl)cc2)C1 [Venetoclax] + CN(C)CCCOc1ccc(-c2ccc3ncc4c(c3c2)n(C2CCOCC2)c(=O)n4C)cn1 [AZD0156] (first compound max 1 µM, 7x7, partner max 1 µM): bucket 1
CCc1c2c(nc3ccc(O)cc13)-c1cc3c(c(=O)n1C2)COC(=O)[C@]3(O)CC [SN-38] + O=C(c1cc(Cc2n[nH]c(=O)c3ccccc23)ccc1F)N1CCN(C(=O)C2CC2)CC1 [Olaparib] (first compound max 0.3 µM, 7x7, partner max 10 µM): bucket 2
COc1cccc(OCCCN)c1-c1cc(Nc2cnc(C#N)cn2)n[nH]1 [Prexasertib] + CN(C)CCCOc1ccc(-c2ccc3ncc4c(c3c2)n(C2CCOCC2)c(=O)n4C)cn1 [AZD0156] (first compound max 1 µM, 7x7, partner max 1 µM): bucket 3
